Origin of values: patent US7884244B2

# Tested target: alpha2A receptor (Homo sapiens)
# Construct: expressed in transfected cells; host or cells: NIH-3T3 cells
# Sequence (P08913 1-465): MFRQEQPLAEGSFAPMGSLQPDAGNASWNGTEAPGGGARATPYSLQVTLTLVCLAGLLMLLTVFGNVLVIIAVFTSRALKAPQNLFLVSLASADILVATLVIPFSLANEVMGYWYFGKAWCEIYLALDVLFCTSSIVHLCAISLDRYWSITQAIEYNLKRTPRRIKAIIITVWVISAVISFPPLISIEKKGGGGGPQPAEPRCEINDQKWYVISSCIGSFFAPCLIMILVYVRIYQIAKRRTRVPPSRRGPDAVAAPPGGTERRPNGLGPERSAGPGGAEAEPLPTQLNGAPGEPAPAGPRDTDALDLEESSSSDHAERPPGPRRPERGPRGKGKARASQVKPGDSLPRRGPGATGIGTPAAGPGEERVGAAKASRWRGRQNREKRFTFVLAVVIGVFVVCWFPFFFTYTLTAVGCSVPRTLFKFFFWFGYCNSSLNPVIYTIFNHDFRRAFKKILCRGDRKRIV
# Assay remarks: Receptor Selection and Amplification Technology (RSAT) assay, alpha2A
# Type: cell-based
# Applied conditions: RSAT, transfected NIH-3T3 cells with Gq/i5; not active = not active at concentrations less than 10 micromolar
Measurement label: Alpha 2A EC50

In the examples that follow, each entry is paired with its recorded Alpha 2A EC50.
N#C/N=C(\NCCF)NC1CCc2cccc(Cl)c21 (stereo not shown); not active
N#C/N=C(\NCCF)NC1CCc2ccc(F)c(F)c21 (stereo not shown); not active
N#C/N=C(\NCCF)NC1CCc2ccc(F)cc21 (stereo not shown); not active
N#C/N=C(/NCCF)NC1CCc2c(Br)cccc21 (stereo not shown); not active
N#C/N=C(\NCCF)NC(Cc1ccccc1)c1ccccc1 (stereo not shown); not active

Look up and state reported Alpha 2A EC50 for `N#C/N=C(/NCCF)NCc1cccc2c1OCC2`
not active

Look up and state reported Alpha 2A EC50 for CCc1cccc2c1CCCC2N/C(=N\C#N)NCCF (stereo not shown)
not active

Look up and state reported Alpha 2A EC50 for N#C/N=C(/NCCF)NC1CCCc2c(Cl)cccc21 (stereo not shown)
not active

Look up and state reported Alpha 2A EC50 for N#C/N=C(/NCCF)NC1CCCc2c(F)cccc21 (stereo not shown)
not active

Look up and state reported Alpha 2A EC50 for N#C/N=C(/NCCF)NC1CCc2cccc(Br)c21 (stereo not shown)
not active

Look up and state reported Alpha 2A EC50 for Cc1ccc2c(c1)C(N/C(=N\C#N)NCCF)CC2 (stereo not shown)
not active

Look up and state reported Alpha 2A EC50 for `N#C/N=C(/NCCF)NC1Cc2ccccc2C1`
not active

Look up and state reported Alpha 2A EC50 for N#C/N=C(\NCCF)NC1CCc2ccc(Cl)cc21 (stereo not shown)
not active

====

# Tested target: alpha2B receptor (Homo sapiens, UniProt P18089)
# Construct: expressed in transfected cells; host or cells: NIH-3T3 cells
# Assay remarks: Receptor Selection and Amplification Technology (RSAT) assay, alpha2B
# Format: cell-based
# Applied conditions: ratio of maximal effect of drug to maximal effect of standard full agonist brimonidine (UK14304)
Measurement label: Alpha 2B IA (intrinsic activity)

Cc1cccc2c1CC[C@@H]2N/C(=N\C#N)NCCF; 1.09
CCc1cccc2c1CCCC2N/C(=N\C#N)NCCF (stereo not drawn); 0.35

(I) N#C/N=C(\NCCF)NC1CCc2ccc(F)cc21 (stereo not drawn)
(II) N#C/N=C(/NCCF)NC1CCc2cccc(Br)c21 (stereo not drawn)
For the pair I and II , which member has the lower Alpha 2B IA (intrinsic activity) number? Reply with the label of the item you choose.
I
(I: 0.42, II: 0.85)

(A) N#C/N=C(/NCCF)NC1CCc2c(Cl)cccc21 (stereo not drawn)
(B) N#C/N=C(\NCCF)NC1CCc2cccc(Cl)c21 (stereo not drawn)
(C) N#C/N=C(/NCCF)NC1CCc2ccccc21 (stereo not drawn)
(D) Cc1cccc2c1CCCC2N/C(=N\C#N)NCCF (stereo not drawn)
Put the compounds in ascending order of Alpha 2B IA (intrinsic activity). # answer = labels listed in requested order
A, C, B, D

(a) Cc1cccc2c1CCC2N/C(=N\C#N)NCCF (stereo not drawn)
(b) N#C/N=C(/NCCF)NC1CCc2c(F)cccc21 (stereo not drawn)
For the pair a and b , which member has the lower Alpha 2B IA (intrinsic activity) number? Reply with the label of the item you choose.
b

(a) N#C/N=C(\NCCF)NC(Cc1ccccc1)c1ccccc1 (stereo not drawn)
(b) Cc1ccc2c(c1)C(N/C(=N\C#N)NCCF)CC2 (stereo not drawn)
(c) N#C/N=C(\NCCF)NC1CCc2ccc(F)c(F)c21 (stereo not drawn)
Put the entries in order of Alpha 2B IA (intrinsic activity), starting with the largest number. # answer = labels listed in requested order
a, c, b

====

# Tested target: alpha2C receptor (Homo sapiens)
# Construct: expressed in transfected cells; host or cells: NIH-3T3 cells
# Sequence (P18825 whole entry): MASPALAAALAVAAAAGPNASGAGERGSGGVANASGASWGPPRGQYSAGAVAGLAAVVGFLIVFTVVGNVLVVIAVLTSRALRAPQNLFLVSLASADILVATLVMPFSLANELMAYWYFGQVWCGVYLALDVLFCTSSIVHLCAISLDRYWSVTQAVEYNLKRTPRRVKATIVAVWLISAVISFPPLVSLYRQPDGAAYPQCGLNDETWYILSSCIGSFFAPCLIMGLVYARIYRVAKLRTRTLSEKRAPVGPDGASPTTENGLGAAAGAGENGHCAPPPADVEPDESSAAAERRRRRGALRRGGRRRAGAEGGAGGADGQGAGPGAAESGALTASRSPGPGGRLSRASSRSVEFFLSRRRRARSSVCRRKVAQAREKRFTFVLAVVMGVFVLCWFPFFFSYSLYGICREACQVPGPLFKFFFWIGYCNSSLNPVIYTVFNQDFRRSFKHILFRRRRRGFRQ
# Assay remarks: Receptor Selection and Amplification Technology (RSAT) assay, alpha2C
# Assay type: cell-based
# Applied conditions: ratio of maximal effect of drug to maximal effect of standard full agonist brimonidine (UK14304)
Measurement label: Alpha 2C IA (intrinsic activity)

In the examples that follow, each entry is paired with its recorded Alpha 2C IA (intrinsic activity).
Cc1cccc2c1CCCC2N/C(=N\C#N)NCCF (stereo not shown); 0.41
N#C/N=C(/NCCF)NC1CCCc2c(F)cccc21 (stereo not shown); 0.42
Cc1cccc(CN/C(=N/C#N)NCCF)c1Cl; 0.84
Cc1cccc2c1CC[C@@H]2N/C(=N\C#N)NCCF; 0.46
Cc1cccc2c1CCC2N/C(=N\C#N)NCCF (stereo not shown); 0.51

(A) N#C/N=C(/NCCF)NC1CCc2ccccc21 (stereo not shown)
(B) N#C/N=C(/NCCF)NCc1cccc2c1OCC2
Select one: A or B . Criterion: greater recorded Alpha 2C IA (intrinsic activity). Reply with the label of the item you choose.
B

====

# Tested target: alpha2B receptor (Homo sapiens, UniProt P18089)
# Sequence (P18089 1-450): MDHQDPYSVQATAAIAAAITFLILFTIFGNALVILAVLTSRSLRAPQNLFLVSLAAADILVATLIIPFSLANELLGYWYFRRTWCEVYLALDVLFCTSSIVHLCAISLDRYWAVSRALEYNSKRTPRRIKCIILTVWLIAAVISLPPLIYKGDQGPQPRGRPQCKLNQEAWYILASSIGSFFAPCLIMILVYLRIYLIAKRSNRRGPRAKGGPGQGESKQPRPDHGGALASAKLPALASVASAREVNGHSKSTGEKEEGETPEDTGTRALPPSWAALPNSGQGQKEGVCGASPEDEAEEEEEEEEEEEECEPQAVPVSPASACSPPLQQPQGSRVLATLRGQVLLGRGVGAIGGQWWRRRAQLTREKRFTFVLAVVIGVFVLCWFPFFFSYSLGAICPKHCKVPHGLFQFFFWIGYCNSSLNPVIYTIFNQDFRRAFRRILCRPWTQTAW
# Assay remarks: Receptor Selection and Amplification Technology (RSAT) assay, alpha2B
# Applied conditions: RSAT, transfected NIH-3T3 cells with Gq/i5; not active = not active at concentrations less than 10 micromolar; read-out: Alpha 2B EC50
pEC50: −log10 of the molar value.
Measurement label: pEC50

N#C/N=C(\NCCF)NC1CCc2ccc(F)c(F)c21 (stereo not shown); 6.25

(1) N#C/N=C(/NCCF)NC1CCCc2c(F)cccc21 (stereo not shown)
(2) N#C/N=C(\NCCF)NC(Cc1ccccc1)c1ccccc1 (stereo not shown)
Select one: 1 or 2 . Criterion: greater recorded pEC50. Reply with the label of the item you choose.
2
(2: 7.01, 1: 6.64)

(1) N#C/N=C(/NCCF)N[C@H]1CCc2ccccc21
(2) N#C/N=C(/NCCF)NC1CCc2c(F)cccc21 (stereo not shown)
(3) N#C/N=C(/NCCF)NC1CCc2cccc(Br)c21 (stereo not shown)
(4) Cc1cccc(CN/C(=N/C#N)NCCF)c1Cl
Put the molecules in ascending order of pEC50. # answer = labels listed in requested order
3, 2, 1, 4

====

# Tested target: alpha2B receptor (Homo sapiens)
# Construct: expressed in transfected cells; host or cells: NIH-3T3 cells
# Sequence (P18089 1-450): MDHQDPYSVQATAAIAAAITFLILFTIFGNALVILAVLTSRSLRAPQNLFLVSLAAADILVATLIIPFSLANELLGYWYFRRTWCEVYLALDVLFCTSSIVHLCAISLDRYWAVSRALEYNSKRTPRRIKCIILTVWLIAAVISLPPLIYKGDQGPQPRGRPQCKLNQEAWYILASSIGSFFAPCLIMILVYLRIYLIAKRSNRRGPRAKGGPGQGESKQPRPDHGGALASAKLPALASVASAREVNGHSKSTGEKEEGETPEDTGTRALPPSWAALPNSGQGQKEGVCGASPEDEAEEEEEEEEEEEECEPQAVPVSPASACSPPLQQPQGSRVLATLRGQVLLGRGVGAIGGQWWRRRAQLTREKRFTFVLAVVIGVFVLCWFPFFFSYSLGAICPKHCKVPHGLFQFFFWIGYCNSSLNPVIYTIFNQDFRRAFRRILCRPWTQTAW
# Assay remarks: Receptor Selection and Amplification Technology (RSAT) assay, alpha2B
# Type: cell-based
# Applied conditions: ratio of maximal effect of drug to maximal effect of standard full agonist brimonidine (UK14304)
Measurement label: Alpha 2B IA (intrinsic activity)

In the examples that follow, each entry is paired with its recorded Alpha 2B IA (intrinsic activity).
CCc1cccc2c1CCC2N/C(=N\C#N)NCCF (centres unmarked); 0.59
N#C/N=C(/NCCF)NC1CCCc2c(F)cccc21 (centres unmarked); 0.69
Cc1cccc(CN/C(=N/C#N)NCCF)c1Cl; 0.93
N#C/N=C(/NCCF)NC1Cc2ccccc2C1; 0.35
N#C/N=C(/NCCF)NCc1cccc2c1OCC2; 0.87

(P) N#C/N=C(/NCCF)NC1CCc2c(Br)cccc21 (centres unmarked)
(Q) N#C/N=C(/NCCF)NC1CCCc2c(Cl)cccc21 (centres unmarked)
Select one: P or Q . Criterion: greater recorded Alpha 2B IA (intrinsic activity). Reply with the label of the item you choose.
P
(P: 0.74, Q: 0.37)
